System: Escherichia coli TOP10
Assay: shrunken log2 fold change of peptide-encoding DNA abundance (4.5 h post-induction vs induction); higher = less antimicrobial activity (less host growth inhibition)
Details: time post-induction: 4.5 h; library: site-saturation at positions 5, 18, 19, 20
shrunken log2 fold change of -0.06 or higher: Y. Under -0.06: N.

Please review the entries below; each comes with its answer.
sequence | cat
RRIRIRPPRLPRPRPRPFIKPRP | N
RRIRFRPPRLPRPRPRPHSKPRP | N
RRIRNRPPRLPRPRPRPNASPRP | Y
RRIRARPPRLPRPRPRPVGMPRP | Y
RRIRTRPPRLPRPRPRPGADPRP | Y

Is it the case that "RRIRERPPRLPRPRPRPYENPRP" has shrunken log2 fold change reaching or exceeding -0.06?
Y

Is it the case that "RRIRNRPPRLPRPRPRPRDMPRP" has shrunken log2 fold change reaching or exceeding -0.06?
N

Is it the case that "RRIRQRPPRLPRPRPRPFFMPRP" has shrunken log2 fold change reaching or exceeding -0.06?
N

Is it the case that "RRIRGRPPRLPRPRPRPKPNPRP" has shrunken log2 fold change reaching or exceeding -0.06?
Y

Is it the case that "RRIRIRPPRLPRPRPRPKIYPRP" has shrunken log2 fold change reaching or exceeding -0.06?
N

Is it the case that "RRIRFRPPRLPRPRPRPCCTPRP" has shrunken log2 fold change reaching or exceeding -0.06?
N

Is it the case that "RRIRKRPPRLPRPRPRPPKVPRP" has shrunken log2 fold change reaching or exceeding -0.06?
Y

Is it the case that "RRIRERPPRLPRPRPRPCEMPRP" has shrunken log2 fold change reaching or exceeding -0.06?
Y

---

System: Escherichia coli TOP10
Assay: shrunken log2 fold change of peptide-encoding DNA abundance (4.5 h post-induction vs induction); higher = less antimicrobial activity (less host growth inhibition)
Details: time post-induction: 4.5 h; library: site-saturation at positions 5, 18, 19, 20
Each entry below lists one item and its recorded shrunken log2 fold change value.
Give only the figure.

Please review the entries below; each comes with its answer.
sequence | tested_on | shrunken log2 fold change
RRIRERPPRLPRPRPRPLFEPRP | Escherichia coli TOP10 | -0.0266
RRIRVRPPRLPRPRPRPANCPRP | Escherichia coli TOP10 | 0.031
RRIRDRPPRLPRPRPRPDKGPRP | Escherichia coli TOP10 | -0.0944
RRIRTRPPRLPRPRPRPEHHPRP | Escherichia coli TOP10 | -0.203
RRIRQRPPRLPRPRPRPAPVPRP | Escherichia coli TOP10 | 1.06

Please supply the value of reported shrunken log2 fold change for the item "RRIRRRPPRLPRPRPRPAFVPRP"
0.36

Please supply the value of reported shrunken log2 fold change for the item "RRIRFRPPRLPRPRPRPIKLPRP"
-0.825

Please supply the value of reported shrunken log2 fold change for the item "RRIRERPPRLPRPRPRPGHAPRP"
0.304

---

Test system: Escherichia coli TOP10
Experiment: shrunken log2 fold change of peptide-encoding DNA abundance (4.5 h post-induction vs induction); higher = less antimicrobial activity (less host growth inhibition)
Conditions: time post-induction: 4.5 h; library: site-saturation at positions 5, 18, 19, 20
Assign a class from recorded shrunken log2 fold change; defined classes: label 0 = under -0.03, label 1 = from -0.03 up to 0.3, label 2 = 0.3 and over

Please review the entries below; each comes with its answer.
sequence | cat
RRIRHRPPRLPRPRPRPHVYPRP | label 0
RRIRIRPPRLPRPRPRPYHNPRP | label 0
RRIRARPPRLPRPRPRPACQPRP | label 2
RRIRNRPPRLPRPRPRPHQQPRP | label 2
RRIRCRPPRLPRPRPRPMTNPRP | label 0
RRIRIRPPRLPRPRPRPYHRPRP | label 1

Quick check: band for "RRIRNRPPRLPRPRPRPMRSPRP"
label 2

Quick check: band for "RRIRLRPPRLPRPRPRPALIPRP"
label 1

---

Test system: Escherichia coli TOP10
Experiment: shrunken log2 fold change of peptide-encoding DNA abundance (4.5 h post-induction vs induction); higher = less antimicrobial activity (less host growth inhibition)
Conditions: time post-induction: 4.5 h; library: site-saturation at positions 5, 18, 19, 20
assay_metric: shrunken log2 fold change
Give only the figure.

sequence | shrunken log2 fold change
RRIRTRPPRLPRPRPRPIMYPRP | -0.347
RRIRTRPPRLPRPRPRPFYYPRP | -0.55
RRIRERPPRLPRPRPRPASFPRP | -0.285
RRIRFRPPRLPRPRPRPPTKPRP | 0.709
RRIRMRPPRLPRPRPRPWLLPRP | -0.0297

Please supply the value of reported shrunken log2 fold change for the item "RRIRPRPPRLPRPRPRPRRKPRP"
0.166

Please supply the value of reported shrunken log2 fold change for the item "RRIRKRPPRLPRPRPRPFGTPRP"
-0.0368

Please supply the value of reported shrunken log2 fold change for the item "RRIRARPPRLPRPRPRPEDPPRP"
0.823

Please supply the value of reported shrunken log2 fold change for the item "RRIRARPPRLPRPRPRPIREPRP"
-0.018

Please supply the value of reported shrunken log2 fold change for the item "RRIRTRPPRLPRPRPRPYQAPRP"
-0.206

Please supply the value of reported shrunken log2 fold change for the item "RRIRVRPPRLPRPRPRPEERPRP"
-0.194

Please supply the value of reported shrunken log2 fold change for the item "RRIRWRPPRLPRPRPRPKMEPRP"
0.577

Please supply the value of reported shrunken log2 fold change for the item "RRIRARPPRLPRPRPRPNYHPRP"
-0.425

Please supply the value of reported shrunken log2 fold change for the item "RRIRARPPRLPRPRPRPMGTPRP"
0.304

Please supply the value of reported shrunken log2 fold change for the item "RRIRGRPPRLPRPRPRPCEAPRP"
0.838

---

Tested on: Escherichia coli TOP10
Assay: shrunken log2 fold change of peptide-encoding DNA abundance (4.5 h post-induction vs induction); higher = less antimicrobial activity (less host growth inhibition)
Conditions: time post-induction: 4.5 h; library: site-saturation at positions 5, 18, 19, 20
shrunken log2 fold change of -0.1 or higher: class 1. Under -0.1: class 0.

sequence | tested_on | cat
RRIRNRPPRLPRPRPRPQKEPRP | Escherichia coli TOP10 | class 1

Is it the case that "RRIRRRPPRLPRPRPRPMSVPRP" has shrunken log2 fold change reaching or exceeding -0.1?
class 1

Is it the case that "RRIRLRPPRLPRPRPRPWPGPRP" has shrunken log2 fold change reaching or exceeding -0.1?
class 1

Is it the case that "RRIRARPPRLPRPRPRPKNFPRP" has shrunken log2 fold change reaching or exceeding -0.1?
class 1

Is it the case that "RRIRMRPPRLPRPRPRPFTFPRP" has shrunken log2 fold change reaching or exceeding -0.1?
class 1

Is it the case that "RRIRNRPPRLPRPRPRPQYWPRP" has shrunken log2 fold change reaching or exceeding -0.1?
class 0

---

Test system: Escherichia coli TOP10
Assay: shrunken log2 fold change of peptide-encoding DNA abundance (4.5 h post-induction vs induction); higher = less antimicrobial activity (less host growth inhibition)
Details: time post-induction: 4.5 h; library: site-saturation at positions 5, 18, 19, 20
Each entry below lists one item and its recorded shrunken log2 fold change value.
Give only the figure.

Please review the entries below; each comes with its answer.
sequence | val
RRIRDRPPRLPRPRPRPVTDPRP | 0.0222
RRIRNRPPRLPRPRPRPEEAPRP | 0.612
RRIRCRPPRLPRPRPRPKCRPRP | -0.281

Please supply the value of reported shrunken log2 fold change for the item "RRIRVRPPRLPRPRPRPRNAPRP"
0.225

Please supply the value of reported shrunken log2 fold change for the item "RRIRYRPPRLPRPRPRPCMNPRP"
-0.0223

Please supply the value of reported shrunken log2 fold change for the item "RRIRWRPPRLPRPRPRPEWEPRP"
0.00016

Please supply the value of reported shrunken log2 fold change for the item "RRIRPRPPRLPRPRPRPFHHPRP"
-0.763

Please supply the value of reported shrunken log2 fold change for the item "RRIRRRPPRLPRPRPRPECGPRP"
0.938

Please supply the value of reported shrunken log2 fold change for the item "RRIRMRPPRLPRPRPRPNVVPRP"
-0.0912

Please supply the value of reported shrunken log2 fold change for the item "RRIRCRPPRLPRPRPRPNGLPRP"
-0.132

Please supply the value of reported shrunken log2 fold change for the item "RRIRRRPPRLPRPRPRPLCMPRP"
-0.126

---

System: Escherichia coli TOP10;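 also: peptides expressed intracellularly from a pBAD plasmid library in pooled LB shake-flask culture, induced with 0.3% L-arabinose, DNA abundance read by NGS, three biological replicates, DESeq2 with apeglm shrinkage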
Assay: shrunken log2 fold change of peptide-encoding DNA abundance (4.5 h post-induction vs induction); higher = less antimicrobial activity (less host growth inhibition)
Conditions: time post-induction: 4.5 h; library: site-saturation at positions 5, 18, 19, 20
shrunken log2 fold change of -0.08 or higher: MET. Under -0.08: NOT MET.

Please review the entries below; each comes with its answer.
sequence | cat
RRIRSRPPRLPRPRPRPMPYPRP | NOT MET
RRIRGRPPRLPRPRPRPMQPPRP | MET
RRIRRRPPRLPRPRPRPQRIPRP | MET
RRIRMRPPRLPRPRPRPYSHPRP | NOT MET

Shifting focus to the sequence that follows.
Is it the case that "RRIRLRPPRLPRPRPRPEAHPRP" has shrunken log2 fold change reaching or exceeding -0.08?
NOT MET

All figures here come from the supplement of paper PMC9112550.
